assay: Plasma pharmacokinetics after multiple oral administrations of imarikiren; type: in vivo, human; conditions: human, plasma, oral, 160 mg, median time to reach the maximum observed plasma concentration (Tmax), nonelderly subjects, all groups (80 and 160 mg), days 1 and 7
Where a name gives a salt, the structure may show the parent alone.
value-kind: Tmax

[
  {
    "compound": "COCCCCn1c(C(=O)N(CC(C)C)[C@@H]2CNC[C@H](C(=O)N3CCOCC3)C2)nc2ccccc21 [Imarikiren, Imarikiren hydrochloride]",
    "value-kind": "Tmax",
    "value-reported": "1 to 2 h"
  }
]
